molecular target: T1, human Her2 (ECD)-Fc protein (human, UniProt P04626 23-652); test: PE-ELISA, crude extract on antigen-coated plate
T1 construct: extracellular domain; Made in HEK293F cells; also called hHer2 (ECD)-Fc antigen; Her2 (ECD)-Fc antigen; not shown: TEV restriction site at the C-terminal of hHer2 (ECD); IgG1 Fc of the pFUSE-IgG1 vector
Items are presented alongside their recorded A405+.

binder: Nanobody No. 16 (VHH, also called 16; not shown: tags (HA, His) implied by anti-HA detection and nickel column) VHH: QVQLQESGGGSVQAGGSLRLSCTASGFTFDDSDMVWYRQAPGNECELVSRISSDGSTYYADSVKGRFTISQDNAKNTVYLQMNSLKPEDTAVYYCAALEWEYELGTCEALDYWGQGTQVTVSS
A405+ [A405]: 1.79
--
binder: Nanobody No. 2 (VHH, not shown: tags (HA, His) implied by anti-HA detection and nickel column) VHH: QVQLQESGGGSVQAGETLRLSCTASGFTFDDSDMGWYRQAPGNECELVSTISSDGSTYYADSVKGRFTISQDNAKNAVYLQMNSLKPEDTAVYYCAAHPLHYELGTCAALDYWGRGTQVTVSS
A405+ [A405]: 1.53
--
binder: Nanobody No. 13 (VHH, camel VHH from pMECs phage display vector; also called Antibody no; 13; not shown: tags (HA, His) implied by anti-HA detection and nickel column) VHH: QVQLQESGGGSVQAGETLRLSCTASGFTFDDSDMGWYRQAPGNECELVSTISADGSTFYADSVKGRFTISQDNAKNTVYLQMNSLKPEDTAVYYCASPENEYELGTCEALDYWGQGTQVTVSS
A405+ [A405]: 2.24
--
binder: Nanobody No. 40 (VHH, also called 40; not shown: tags (HA, His) implied by anti-HA detection and nickel column) VHH: QVQLQESGGGSVQAGETLRLSCAASGYTYTGYCMGWFRQATGKEREGVATIDSDGDTTYADSVKGRFTISKDNGKNTLYLQMNSLKPEDTAMYYCAADFRRWHLCSSSFQEYDMDYWGKGTQVTVSS
A405+ [A405]: 1.57
